# reported IC50; entries follow
# target desc: 5-lipoxygenase (Cavia porcellus)
# Construct: 0.2 ml of the supernatant obtained from the PMNL sonicate; endogenous in cells; host or cells: casein-elicited guinea pig peritoneal polymorphonuclear leukocytes (PMNL), sonicate, 30,000 x g supernatant
# assay summary: 5-Lipoxygenase (5-LO) Assay: 5-HETE formation in supernatant of guinea pig PMNL sonicate
# Assay type: biochemical
# test parameters: Table II; guinea pig PMNL sonicate supernatant, 14C-arachidonic acid, 37° C.; read-out: 5-LO (concentration in which formation of 5-HETE is inhibited by 50%, IC50)
Value expressed in nM; do not type the unit.

A selection of reference data follows.
CSc1ccc(C=CC(=O)N(C)O)c(Cc2ccccc2)c1 [Example 13]; 23
CCCCCCc1cccc(C=CC(=O)N(C)O)c1S(C)(=O)=O [Example 21]; 166
C=CCCSc1ccccc1C=CC(=O)N(C)O [Example 2]; 44

Then there is this molecule:
Query string: Data request, read-out IC50, for CCCCCCc1ccc([S+](C)[O-])c(C=CC(=O)N(C)O)c1 (stereo not drawn) [Example 11]
Result string: 96

---

# reported pIC50; entries follow
# target desc: 5-lipoxygenase (Cavia porcellus)
# Construct: 0.2 ml of the supernatant obtained from the PMNL sonicate; endogenous in cells; host or cells: casein-elicited guinea pig peritoneal polymorphonuclear leukocytes (PMNL), sonicate, 30,000 x g supernatant
# assay summary: 5-Lipoxygenase (5-LO) Assay: 5-HETE formation in supernatant of guinea pig PMNL sonicate
# Format: biochemical
# test parameters: Table II; guinea pig PMNL sonicate supernatant, 14C-arachidonic acid, 37° C.; read-out: 5-LO (concentration in which formation of 5-HETE is inhibited by 50%, IC50)
Value format note: pIC50 is -log10 of concentration (mol/L); just state the number.

A selection of reference data follows.
CN(O)C(=O)C=Cc1ccccc1-c1ccccc1 [Example 24, 2-phenyl-N-hydroxy-N-methylcinnamamide]; 6.88
CN(O)C(=O)C=Cc1ccccc1Cc1ccccc1 [Example 37, 2-benzyl-N-hydroxy-N-methylcinnamamide]; 7.28
CCCCCCc1cccc(C=CC(=O)N(C)O)c1[S+](C)[O-] (centres unmarked) [Example 20]; 6.34

Query string: Data request, read-out pIC50, for CN(O)C(=O)C=Cc1ccccc1SC(C)(C)C [Example 18]
Result string: 6.76

Query string: Let us now turn to CCCCCCSc1ccccc1C=CC(=O)N(C)O [Example 3]
Result string: 7.77

---

# target desc: 5-lipoxygenase (Cavia porcellus, UniProt A0A286X958)
# Construct: 0.2 ml of the supernatant obtained from the PMNL sonicate; endogenous in cells; host or cells: casein-elicited guinea pig peritoneal polymorphonuclear leukocytes (PMNL), sonicate, 30,000 x g supernatant
# Sequence (A0A286X958 1-674): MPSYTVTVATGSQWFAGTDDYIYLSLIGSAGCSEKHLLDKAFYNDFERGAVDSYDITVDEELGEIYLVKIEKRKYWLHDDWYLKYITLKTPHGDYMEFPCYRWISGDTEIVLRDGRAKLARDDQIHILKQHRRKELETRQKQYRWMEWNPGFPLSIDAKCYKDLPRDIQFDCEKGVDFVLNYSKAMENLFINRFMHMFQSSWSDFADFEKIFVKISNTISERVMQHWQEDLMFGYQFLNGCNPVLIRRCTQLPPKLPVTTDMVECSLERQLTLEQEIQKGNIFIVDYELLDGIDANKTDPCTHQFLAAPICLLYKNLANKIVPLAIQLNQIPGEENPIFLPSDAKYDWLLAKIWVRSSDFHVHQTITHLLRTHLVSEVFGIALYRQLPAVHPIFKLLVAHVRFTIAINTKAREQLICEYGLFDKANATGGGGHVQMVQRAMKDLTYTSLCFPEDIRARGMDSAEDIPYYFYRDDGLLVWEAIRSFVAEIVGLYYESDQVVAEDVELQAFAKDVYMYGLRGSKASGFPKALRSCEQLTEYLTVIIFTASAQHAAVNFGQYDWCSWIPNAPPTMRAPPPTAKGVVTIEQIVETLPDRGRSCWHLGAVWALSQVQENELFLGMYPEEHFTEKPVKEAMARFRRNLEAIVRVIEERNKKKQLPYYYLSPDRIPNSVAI
# assay summary: 5-Lipoxygenase (5-LO) Assay: 5-HETE formation in supernatant of guinea pig PMNL sonicate
# Format: biochemical
# test parameters: Table II; guinea pig PMNL sonicate supernatant, 14C-arachidonic acid, 37° C.; read-out: 5-LO (concentration in which formation of 5-HETE is inhibited by 50%, IC50)
# Experimental: Ten milliliters of a 2% casein solution is injected intraperitoneally to guinea pigs weighing 250-300 gm. After 16-18 hours, the guinea pigs are killed by suffocation in a carbon dioxide chamber. […] Enzyme activity is determined by assaying for 5-hydroxy-6,8,11,14-eicosatetraenoic acid (5-HETE) formation by first incubating 0.2 ml of the supernatant obtained from the PMNL sonicate with the test compound, 1 mM CaCl2, 2 mM ATP, and 1 mM GSH for 5 minutes at 37° C. […]
assay endpoint: IC50 (nM)
Value expressed in nM; do not type the unit.

A selection of reference data follows.
CCCCSc1ccccc1C=CC(=O)N(C)O [Example 33]; 47
CN(O)C(=O)C=Cc1ccccc1SCC1CCCCC1 [Example 26]; 14

Query string: Data request, read-out IC50, for CCCCCCc1cccc(C=CC(=O)N(C)O)c1SC [Example 17]
Result string: 59
